Biological target: T1, LcrH_(1–168), class II chaperone LcrH from Y. pestis (Y. pestis, UniProt P21207 1-168)
T1 construct: also called LcrH/SycD
T1 sequence: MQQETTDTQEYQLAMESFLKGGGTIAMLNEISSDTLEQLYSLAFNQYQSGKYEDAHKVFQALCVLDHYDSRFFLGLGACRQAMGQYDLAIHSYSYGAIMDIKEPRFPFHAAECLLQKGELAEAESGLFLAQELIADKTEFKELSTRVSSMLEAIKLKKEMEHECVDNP
Experiment: ITC
Settings: both partners purified
# Kd per record follows
Kindly answer with a numeric value in µM, unit omitted.

- BINDER: "QVPELIKPSQ (source: synthetic peptide) [YopD_(56–65) 10 mer N-terminal anchor peptide of the minor translocator YopD]"
  ENDPOINT VALUE: 82

Proceed to the following item.
**Query** Supply recorded Kd for QGVQLPAPLA (source: synthetic peptide) [YopB_(48–57) 10 mer N-terminal anchor peptide of the major translocator YopB] here.
**Result** 155
